Numbers sourced from patent US20210238197A1.

# assay: Single dose PK study (SDPK) in female CD-1 mouse
# Format: in vivo
# study-conditions: IV bolus, 1.0 mg/kg solution
Entries and their AUC total values follow.

Consider the molecule CNc1cc(F)c(F)c2c1[nH]c1ncc(-c3ccc4ccc(C(=O)O)c(=O)n4c3)c(N3CC[C@H]4CN(C)C[C@H]43)c12 and give its measured AUC total.
256 ng·h/mL

Lookup CNc1cc(F)c(C#N)c2c1[nH]c1ncc(-c3ccc4ccc(C(=O)O)c(=O)n4c3)c(N3CC[C@H]4CN(C)C[C@H]43)c12
214 ng·h/mL

Lookup CNc1cc(F)c(F)c2c1[nH]c1ncc(-c3ccc4ccc(C(=O)O)c(=O)n4c3)c(N3CCC4CN(C)C[C@@H]43)c12 (stereo in doubt)
374.7 ng·h/mL
